Tested on: MDA-MB-468 breast
Test: NCI tumour cell line growth inhibition, 48 h
quantity name: log10(TGI) (log10 of the value in µM)

>>> recorded_result("c1cc(C2CCCCC2)ccc1OCCCCCCN1CCNCC1")
0.56
>>> recorded_result("C=C1C(=O)O[C@H]2[C@H]1CC/C(CNS(=O)(=O)c1ccc3ccccc3c1)=C\\CC[C@@]1(C)O[C@@H]21")
0.21
>>> recorded_result("COc1cc2c(c(OC)c1OC)C(=O)CC(c1cccc(NC(=O)c3cc(NC(=O)[C@H](C)N)ccc3Cl)c1)O2 (stereo not given in full)")
1.45
>>> recorded_result("CN(C)C(=S)NN=C(c1ccccn1)c1ccccn1")
1.38
>>> recorded_result("COc1ccc(C(O)c2cc3c(N)c(C(=O)Nc4cccc(Cl)c4C)sc3nc2C)cc1 (stereo not given)")
0.17

---

System: MDA-MB-468 breast
Assay: NCI tumour cell line growth inhibition, 48 h
Note to self: values exactly at 8 µM are Y. So TGI at or above 8 µM is Y, below is N.

>>> discrete_label("Nc1ccc(N=Nc2ccccc2)c(N)n1")
"Y"
>>> discrete_label("Cc1oc(-c2ccccc2)nc1CN[C@@H]1C[C@@H]2C[C@H]([C@H]1C)C2(C)C")
"Y"
>>> discrete_label("Nc1nc2c(c3ncccc13)C(c1ccc(Cl)c(Cl)c1)Cc1ncccc1-2 (centres undefined)")
"Y"
>>> discrete_label("NS(=O)(=O)c1ccc(C2C3=C(CCCC3=O)OC3=C2C(=O)c2ccccc2C3=O)cc1 (centres undefined)")
"N"
>>> discrete_label("COc1cc([C@@H]2c3cc4c(cc3C(Br)[C@H]3COC(=O)[C@H]23)OCO4)cc(OC)c1OC (some centres undefined)")
"N"
>>> discrete_label("CC/C=C\\C/C=C\\C[C@H](O)C/C=C1/C(=O)C=C[C@H]1C/C=C\\CCC(=O)OC")
"N"
>>> discrete_label("CNC(=O)c1c(NC(=O)c2cccc(C(F)(F)F)c2)sc2c1CCC(=O)C2")
"N"
>>> discrete_label("C=C1C(=O)O[C@H]2[C@H]1CC/C(CNC(=O)/C=C/c1cccc(OC)c1)=C\\CC[C@@]1(C)O[C@@H]21")
"N"

---

Test system: SK-MEL-2 melanoma
Test: NCI tumour cell line growth inhibition, 48 h
quantity name: GI50

>>> recorded_result("COc1ccc2[nH]c(=O)c(CSc3nccc(-c4ccc(Cl)cc4)n3)cc2c1")
"18.1 µM"
>>> recorded_result("COc1ccc2[nH]c(O)c(N=Nc3nc(-c4ccc(Br)cc4)cs3)c2c1")
"2.6 µM"
>>> recorded_result("Cc1oc(-c2ccccc2)nc1CN[C@@H]1C[C@@H]2C[C@H]([C@H]1C)C2(C)C")
"14.5 µM"
>>> recorded_result("COc1cc2c(c(OC)c1OC)C(=O)CC(c1cccc(NC(=O)c3cc(NC(=O)[C@H](C)N)ccc3Cl)c1)O2 (some centres undefined)")
"14.8 µM"

---

System: MDA-MB-468 breast
Assay: NCI tumour cell line growth inhibition, 48 h; in the data active = GI50 below about 0.43 µM; inactive = the rest
Outcomes: t (active), f (inactive)

>>> discrete_label("Cc1[nH]c(C(=O)Nc2ccc(C(=O)N3CCNCC3)cc2OC(C)C)c(Cl)c1Cl")
"f"
>>> discrete_label("COc1ccc(Nc2ccnc(NCCNc3ccnc4cc(Cl)ccc34)n2)cc1")
"f"
>>> discrete_label("O=C(CCCCCCNC(=O)C(O)(O)C(F)(F)F)Nc1ncc(-c2ccc(Br)cc2)s1")
"f"
>>> discrete_label("COc1cc([C@@H]2c3cc4c(cc3C(Br)[C@H]3COC(=O)[C@H]23)OCO4)cc(OC)c1OC (some centres not stated)")
"t"
>>> discrete_label("COc1cc2c(c(OC)c1OC)C(=O)CC(c1cccc(NC(=O)c3cc(NC(=O)[C@H](C)N)ccc3Cl)c1)O2 (some centres not stated)")
"f"
>>> discrete_label("NC(=O)C(Br)CBr (configuration not stated)")
"f"
>>> discrete_label("CCc1ccc(-c2ccc(=O)n(-c3ccc(S(N)(=O)=O)cc3)n2)cc1")
"f"
>>> discrete_label("O=C(Nc1ncc(Cc2ccccc2)s1)c1ccc2c(c1)OCCCO2")
"t"
>>> discrete_label("N#Cc1c2ccccc2c2n1-c1ccccc1OC(c1ccccc1)C2=O (configuration not stated)")
"f"
>>> discrete_label("COc1ccc(C(O)c2cc3c(N)c(C(=O)Nc4cccc(Cl)c4C)sc3nc2C)cc1 (configuration not stated)")
"f"
>>> discrete_label("C=C1C(=O)O[C@H]2[C@H]1CC/C(CNC(=O)/C=C/c1cccc(OC)c1)=C\\CC[C@@]1(C)O[C@@H]21")
"f"
>>> discrete_label("CSc1ccc(-c2cc(-c3ccc(NC(=O)CCCN4CCCC4)cc3)nc(-c3ccc(NC(=O)CCCN4CCCC4)cc3)c2)cc1")
"f"
>>> discrete_label("C=C1C(=O)O[C@H]2[C@H]1CC/C(CNS(=O)(=O)c1ccc3ccccc3c1)=C\\CC[C@@]1(C)O[C@@H]21")
"t"
>>> discrete_label("O=C1C2=C(C(=O)c3c(O)cccc31)C(c1ccco1)c1sc(=O)[nH]c1S2 (configuration not stated)")
"f"
>>> discrete_label("COC(=O)Nc1nc2ccc(Oc3ccc(NC(=O)Nc4cccc(Br)c4)cc3)cc2[nH]1")
"f"
>>> discrete_label("NS(=O)(=O)c1ccc(C2C3=C(CCCC3=O)OC3=C2C(=O)c2ccccc2C3=O)cc1 (configuration not stated)")
"t"
>>> discrete_label("COc1cc(C(=O)/C=C/c2c(-c3ccc(F)cc3)nc3sc(C)cn23)cc(OC)c1OC")
"f"
